system: HCC1937; test: relative cell viability, compound + RSL3, vs DMSO (fraction of DMSO control); higher = less growth inhibition; details: 72 h;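 further: breast cancer cell viability read out with the CCK-8 kit after co-treatment of each compound with the ferroptosis inducer RSL3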
measured_metric: relative cell viability
One number for each entry.

Example compounds with recorded relative cell viability:
compound="O=S(=O)(Nc1ccc(C(O)(C(F)(F)F)C(F)(F)F)cc1)c1cccs1 + COC(=O)c1ccc([C@H]2c3[nH]c4ccccc4c3C[C@H](C(=O)OC)N2C(=O)CCl)cc1" measured_metric="relative cell viability" endpoint_result=0.617
compound="COC(=O)c1cc(Cl)c(O)c(S(=O)(=O)Nc2cc(-c3ccccc3)c(F)cc2F)c1 + COC(=O)c1ccc([C@H]2c3[nH]c4ccccc4c3C[C@H](C(=O)OC)N2C(=O)CCl)cc1" measured_metric="relative cell viability" endpoint_result=0.45

For each of the items listed, what is its relative cell viability?
1. CCc1ccc(CCOc2ccc(CC3SC(=O)NC3=O)cc2)nc1 (configuration not stated) [Pioglitazone] + COC(=O)c1ccc([C@H]2c3[nH]c4ccccc4c3C[C@H](C(=O)OC)N2C(=O)CCl)cc1
2. O=C(NCCS(=O)(=O)c1ccc(C(F)(F)F)cn1)c1ccc(Cl)cc1 + COC(=O)c1ccc([C@H]2c3[nH]c4ccccc4c3C[C@H](C(=O)OC)N2C(=O)CCl)cc1
3. Nc1cccc(S(=O)(=O)N2CCCN(S(=O)(=O)c3ccc4c(c3)OCCO4)CC2)c1 + COC(=O)c1ccc([C@H]2c3[nH]c4ccccc4c3C[C@H](C(=O)OC)N2C(=O)CCl)cc1
4. CCN(CC)CCN(Cc1ccc(-c2ccc(C(F)(F)F)cc2)cc1)C(=O)Cn1c(SCc2ccc(F)cc2)nc(=O)c2c1CCC2 [Darapladib] + COC(=O)c1ccc([C@H]2c3[nH]c4ccccc4c3C[C@H](C(=O)OC)N2C(=O)CCl)cc1
5. O=c1c(O[C@@H]2O[C@H](CO)[C@@H](O)[C@H](O)[C@H]2O)c(-c2ccc(O)cc2)oc2cc(O)cc(O)c12 [Astragalin] + COC(=O)c1ccc([C@H]2c3[nH]c4ccccc4c3C[C@H](C(=O)OC)N2C(=O)CCl)cc1
6. O=C(O)C(O)Cc1ccc(O)c(O)c1 (configuration not stated) [Sodium Danshensu] + COC(=O)c1ccc([C@H]2c3[nH]c4ccccc4c3C[C@H](C(=O)OC)N2C(=O)CCl)cc1
7. Cc1nc(Nc2cnn(C3CCNCC3)c2)nc2c1N(C)C(=O)c1cc3ccccc3cc1N2C + COC(=O)c1ccc([C@H]2c3[nH]c4ccccc4c3C[C@H](C(=O)OC)N2C(=O)CCl)cc1

OUTPUT:
[0.919, 0.362, 0.382, 0.0907, 0.586, 0.631, 0.31]
